Test system: HGGX39 (paediatric high-grade glioma line)
method summary: growth inhibition (% activity, log2 RLU normalised to DMSO / staurosporine); higher = more growth inhibition
condition summary: 33 µM
measured property: growth inhibition (%)
# output: bare number, implied unit %

Completed entries (count: 2):
COc1ccc2c(c1)c(CC(=O)OCC(=O)O)c(C)n2C(=O)c1ccc(Cl)cc1
6.62
NC(=O)N1c2ccccc2C=Cc2ccccc21
1.28

**Query** Query: growth inhibition; subject: COc1ccc(CN2CCN(C(c3ccc(F)cc3)c3ccc(F)cc3)CC2)c(OC)c1OC
**Result** 7.88

**Query** Record: NC[C@@H]1O[C@H](O[C@H]2[C@@H](O)[C@H](O[C@@H]3[C@@H](O)[C@H](N)C[C@H](N)[C@H]3O[C@H]3O[C@H](CO)[C@@H](O)[C@H](O)[C@H]3N)O[C@@H]2CO)[C@H](N)[C@@H](O)[C@@H]1O
**Result** 1.1
